As shown below, each of these compounds has a reported inhibition value.
Molecular target: Genome polyprotein (Dengue virus type 2 (strain 16681-PDK53))
Assay: flavivirus cap methylation enzyme inhibition – biochemical, confirmation dose response, primary screen (AID 588689)
Details: Dengue-2 NS5 methyltransferase capping enzyme assay, at 25 µM, active compounds read high
Among all 340,000 compounds or so, about 1,000 (0.29%) were called active. Not all results are given here. Measured potencies and affinities stand elsewhere.
Return type: number; implicit unit %.

As a guide, the following entries are already answered.
[
  {
    "COMPOUND": "CCOC(=O)N1CCN(C(=O)c2cn(CC)c3ccc(S(=O)(=O)N(C)C4CCCCC4)cc3c2=O)CC1",
    "inhibition [%]": 2.95
  },
  {
    "COMPOUND": "COc1cc(C2CC(=O)OC3=C2C(=O)CC(C)(C)C3)cc(OC)c1OC (stereo not drawn)",
    "inhibition [%]": 2.26
  },
  {
    "COMPOUND": "COc1cc(Br)cc(/C=C/c2ccc3cccc(O)c3n2)c1OC",
    "inhibition [%]": 13.2
  }
]

The recorded inhibition for COc1ccc(OCCCC(=O)ON=C(N)c2ccccc2Cl)cc1 is 1.1

inhibition reported for this compound CCOc1cc(C(=O)N2CCN=C2SC)cc(OCC)c1OCC : -0.73

Field inhibition (entry COc1ccccc1/C=C/C=c1\sc2nc(=O)c(Cc3ccccc3)nn2c1=O ) reads -9.19
